What composite z-score was measured for each of the following?
measurementTarget: Streptavidin (Streptomyces avidinii)
protocol: compounds binding control protein streptavidin – biophysical, small-molecule microarray, 635/667 nm fluorescence, artefact control for SMM compound annotation, primary screen (AID 1147);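 further: signal reflects streptavidin binding to arrayed compounds as a control protein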
measurementSetup: higher = more signal

Exam item: Request - read-out composite z-score | tested on Streptavidin (Streptomyces avidinii) | compound O=C1C2C=CC(C(O)COCc3ccccc3)N(Nc3ccc([N+](=O)[O-])cc3)C2C(=O)N1c1ccccc1 (configuration not stated)
Marked response: 0.464

Exam item: Same thing, different compound: `CCCCC(=C=CC[C@@H](O)c1ccc(CO)o1)CCO`
Marked response: -0.419

Exam item: COc1ccc(C(O)C2C=CC3C(=O)N(C)C(=O)C3N2NC(=O)OC(C)(C)C)c2ccccc12 (configuration not stated) , same question.
Marked response: 1.13

Exam item: Record: `O=C(CS)NCCCCCNC(=O)[C@@H]1C[C@@H]2C(=O)NCC(=O)N2[C@@H]1c1cccc(OCCO)c1`
Marked response: -0.774

Exam item: Same question for CCOC(=O)C1=CCC(c2ccc(F)cc2)N(S(=O)(=O)c2ccc(C)cc2)C1 (configuration not stated) please.
Marked response: 0.407

Exam item: // repeat for O=C1C2C=CC(C(O)c3ccc4c(c3)OCO4)N(Nc3ccc([N+](=O)[O-])cc3)C2C(=O)N1c1ccccc1 (configuration not stated) and report
Marked response: 0.145

Exam item: # repeat for `COCCOC(=O)N1C(=O)[C@@]2(c3cc(C#CCCO)ccc31)[C@H](c1ccc(OCCO)cc1)N1[C@H](c3ccccc3)[C@H](c3ccccc3)OC(=O)[C@H]1[C@@H]2C(N)=O`
Marked response: 0.266
